# Ki listing for each entry below
target-of-assay: Gamma-aminobutyric acid receptor subunit alpha-3 (Rattus norvegicus, UniProt P20236)
Sequence (P20236 whole entry I342M/K409L): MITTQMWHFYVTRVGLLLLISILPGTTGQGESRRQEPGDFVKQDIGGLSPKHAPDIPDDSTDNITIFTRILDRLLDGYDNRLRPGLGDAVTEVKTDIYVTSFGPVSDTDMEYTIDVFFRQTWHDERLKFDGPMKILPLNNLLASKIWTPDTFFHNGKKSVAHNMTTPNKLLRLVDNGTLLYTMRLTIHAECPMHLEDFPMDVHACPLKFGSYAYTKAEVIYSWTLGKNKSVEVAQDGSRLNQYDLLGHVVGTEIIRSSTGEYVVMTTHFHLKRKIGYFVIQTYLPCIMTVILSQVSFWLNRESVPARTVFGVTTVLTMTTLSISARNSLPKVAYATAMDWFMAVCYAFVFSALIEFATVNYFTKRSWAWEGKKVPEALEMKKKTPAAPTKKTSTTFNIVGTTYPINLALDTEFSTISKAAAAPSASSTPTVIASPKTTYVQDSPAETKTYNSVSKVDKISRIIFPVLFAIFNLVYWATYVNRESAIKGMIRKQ
measured-endpoint: Ki (nM)

compound="CC(=O)C1CCC2C3CC[C@H]4C[C@H](O)CC[C@]4(C)C3CC[C@]12C (some centres not stated) [Allopregnanolone]" reported_result=20
compound="C[C@]12CC[C@H]3[C@@H](CC[C@@H]4C[C@@](O)(C(F)(F)F)CC[C@@H]43)[C@@H]1CC[C@@H]2C(=O)CO [GMA-839]" reported_result=96

----------
Heads up, these compounds all have Ki values measured for Gamma-aminobutyric acid receptor subunit alpha-4 (Rattus norvegicus).
measured-endpoint: Ki (nM)

compound=C[C@]12CC[C@H]3[C@@H](CC[C@@H]4C[C@@](O)(C(F)(F)F)CC[C@@H]43)[C@@H]1CC[C@@H]2C(=O)CO target_of_assay="Gamma-aminobutyric acid receptor subunit alpha-4 (Rattus norvegicus)" measured_endpoint=Ki reported_result=2300
compound="CC(=O)C1CCC2C3CC[C@H]4C[C@H](O)CC[C@]4(C)C3CC[C@]12C (some centres not stated)" target_of_assay="Gamma-aminobutyric acid receptor subunit alpha-4 (Rattus norvegicus)" measured_endpoint=Ki reported_result=1900
